test: NCI Yeast Anticancer Drug Screen. Data for the CLN2oe strain (AID 163);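 note: 0% = growth of vehicle-only control cultures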; conditions: S. cerevisiae CLN2oe strain, at 3.7 µM, active compounds read high
About 79,000 compounds went through this panel and 15% of them were active in at least one assay; those are over-represented in the sample as a whole.
METRIC: growth inhibition (%)
Give your result in % as a bare value.

Take a look at these entries with their results.
INSERT INTO assay_data (compound, metric, endpoint_unit, number) VALUES
  ('CC1=C(CO)C2=C(C)C3(CC3)[C@@](C)(O)C(=O)C2=C1', 'growth inhibition', '%', -6),
  ('CC(C)(C)c1cc([N+](=O)[O-])cc([N+](=O)[O-])c1O', 'growth inhibition', '%', 1),
  ('COC(=O)C1c2cc3c(c(O)c2C(O)CC1(C)O)C(=O)c1c(O)cc2c(c1C3=O)OC1OC2(C)C(O)C(N(C)C)C1O (configuration not stated)', 'growth inhibition', '%', 1);

Challenge: Please report the recorded growth inhibition for CCCN(CCC)c1c([N+](=O)[O-])cc(S(N)(=O)=O)cc1[N+](=O)[O-] .
Response given: -3

Challenge: Using the record for C[N+]1(CCCl)CC[N+](C)(CCCl)CC1 (configuration not stated) , report its growth inhibition.
Response given: -2

Challenge: // lookup growth inhibition for COC1CC(CC2CCC(C)C(C(C)C(=O)O)O2)OC2(OC(C)(C3CCC(C)(C4OC(C5OC(O)(CO)C(C)CC5C)CC4C)O3)CC2C)C1C (configuration not stated)
Response given: -22

Challenge: If you can, please state the reported growth inhibition value of CC1CN1C1=C(Cl)C(=O)C(N2CC2C)=C(Cl)C1=O (configuration not stated) .
Response given: -8

----------
assay: NCI Yeast Anticancer Drug Screen. Data for the rad52 strain (AID 147);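 note: 0% = growth of vehicle-treated control cultures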; settings: S. cerevisiae rad52 mutant growth inhibition; at 3.7 µM; active compounds read high
The panel holds about 79,000 compounds, 15% with a hit somewhere; the sample as a whole holds those more often.
METRIC: growth inhibition (%)
Quick note: give the figure in %, leave out the unit.

// below: answered compounds
INSERT INTO measurements (compound, number) VALUES
  ('COC(=O)C1c2cc3c(c(O)c2C(O)CC1(C)O)C(=O)c1c(O)cc2c(c1C3=O)OC1OC2(C)C(O)C(N(C)C)C1O (stereo not given)', 16),
  ('CN(CCc1ccc(Br)cc1)CCN1CCCCC1', 26),
  ('CC1CCC2(NC1)OC1CC3C4CCC5CC(OC6OC(CO)C(OC7OC(CO)C(O)C(OC8OCC(O)C(O)C8O)C7OC7OC(CO)C(O)C(O)C7O)C(O)C6O)CCC5(C)C4CCC3(C)C1C2C (stereo not given)', 8);

Challenge: Entry O=Cc1ccc(C(F)(F)F)cc1.[C-]#[O+].[C-]#[O+].[C-]#[O+].[Cr] has what growth inhibition?
Response given: 17

Challenge: Consider the compound Cc1ccc2c(c1N)C(=O)c1ccccc1C2=O and give its measured growth inhibition.
Response given: 22

Challenge: I'd like to know its growth inhibition. The compound in question is O=C(NNC(=O)OCC(Cl)(Cl)Cl)OCC(Cl)(Cl)Cl
Response given: 0

Challenge: I have this compound here, CCCCCCCCCCCCCCCCP(=O)(O)OCC(N)C(=O)O (stereo not given) , and I need its recorded growth inhibition.
Response given: -40

Challenge: Recorded growth inhibition for Nc1nc(-c2ccccc2)c(-c2ccccc2)[se]1 , please?
Response given: 3

Challenge: Can you look up the measured growth inhibition of C/C(=N\O)c1ccc2ccc3ccccc3c2c1 for me?
Response given: 11

Challenge: Please report the recorded growth inhibition for C[C@]12CCc3nonc3C1CC[C@@H]1C2CC[C@]2(C)C(=O)CCC12 (stereo not given in full) .
Response given: 5

----------
assay: NCI Yeast Anticancer Drug Screen. Data for the sgs1 mgt1 strain (AID 161);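 note: 0% = growth of cultures given vehicle only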; details: S. cerevisiae sgs1 mgt1 strain, at 50.0 µM (retest, dose inferred, filed as 5.0)
Compounds without any hit were thinned out: in the full panel of roughly 79,000, 15% have a hit. Active and inactive are the calls of the source. Rule as the data show it: active = growth inhibition above about 70%; inactive = the rest.
Assign a class; possible classes are active, inactive

INSERT INTO assay_data (compound, cat) VALUES
  ('Cn1cnc(C(=N)[Se])c1N', 'inactive'),
  ('C[As](C)SCC1OC2OC(C)(C)OC2C2OC(C)(C)OC12 (stereo not given)', 'active'),
  ('ClCCN(CCCl)c1ccc(CN2CCCN(Cc3ccc(N(CCCl)CCCl)cc3Cl)C2c2ccncc2)c(Cl)c1', 'active');

Challenge: For CS(=O)(=O)OCCN(CCOS(C)(=O)=O)c1ccc(C=O)cc1 , which call appears in the assay record?
Response given: active

Challenge: Status in this test for NC1=C(c2nc(-c3ccccc3)cs2)C(c2ccc(Br)cc2)c2c(c3ccccc3oc2=O)O1 (stereo not given) ?
Response given: active

----------
experiment: NCI Yeast Anticancer Drug Screen. Data for the bub3 strain (AID 167); conditions: S. cerevisiae bub3 mutant strain, at 50.0 µM, active compounds read high
The panel holds about 79,000 compounds, 15% with a hit somewhere; the sample as a whole holds those more often.
METRIC: growth inhibition (%)
Kindly provide the numeric value in % only, without the unit symbol.

INSERT INTO assay_data (compound, metric, number) VALUES
  ('CCCCCCC[CH2][Sn]([F])([F])[CH2]CCCCCCC', 'growth inhibition', -5.1),
  ('CC1(C)CC(=O)C([Se]C2=C(O)CC(C)(C)CC2=O)=C(O)C1', 'growth inhibition', 99.6),
  ('COC(=O)C1=C(C(=O)OC)[C]([Hg][CH3])(C(C)=O)N=N1 (configuration not stated)', 'growth inhibition', 99.2),
  ('c1cc2c(c(NC3=NCCN3)c1)CCCC2', 'growth inhibition', -9.9),
  ('Cl[C](Cl)(Cl)[Hg][c]1ccccc1', 'growth inhibition', 91.8);

Challenge: Param item = ClCCN(CCCl)CCN1c2ccccc2Sc2ccc3ccccc3c21 ; retrieve measured growth inhibition.
Response given: 40.6

Challenge: Returns the measured growth inhibition for the input compound. Input: Nc1c(Br)cc(Br)c2c1C(=O)c1ccccc1C2=O
Response given: 7.65

Challenge: What growth inhibition value was documented for this compound, S=P(Nc1ccccc1)(Nc1ccccc1)Nc1ccccc1 ?
Response given: 98.2

Challenge: // growth inhibition lookup, key: CN(C)C(=[Se])[Se]C(=[Se])N(C)C
Response given: 95.8

Challenge: I have this compound here, Cc1nc2ccccc2cc1C[N+]12CN3CN(CN(C3)C1)C2 , and I need its recorded growth inhibition.
Response given: 42

Challenge: Could you share which growth inhibition value was measured for O=[N+]([O-])c1c(Cl)sc(Cl)c1[N+](=O)[O-] ?
Response given: 99.7

Challenge: Item under review: CSc1ccc2c(c1)c(CCN)c(C)n2Cc1ccccc1Cl . Reported growth inhibition?
Response given: 99.5

----------
Test: NCI Yeast Anticancer Drug Screen. Data for the wt2 strain (AID 169);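 note: 0% = growth of vehicle-treated yeast cultures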
Details: S. cerevisiae wt2 strain growth inhibition; at 33.0 µM; active compounds read high
Procedure: Growth inhibition of yeast strains with defined genetic alterations is measured as a screen for potential anti-cancer activity. Selected strains with alterations in DNA damage repair or cell cycle control were exposed to compounds and growth inhibition was measured relative to vehicle treated controls. The strain used in this assay is wt2
This is part of a sample that, as a whole, favours compounds with a hit. Of some 79,000 tested, about 15% had one in any assay.
METRIC: growth inhibition (%)
Number only, in %; omit the unit.

Solved entries (count: 10):
INSERT INTO results (molecule, endpoint_unit, number) VALUES
  ('CCCCCCCCCCCCCCCCP(=O)(O)OCC(N)C(=O)O (stereo unspecified)', '%', -2),
  ('C[C@]12CCC(=O)C=C1CC[C@@H]1C2CC[C@@]2(C)C1CC[C@@H]2OC(=O)C12OC1CCC2=O (stereo partly specified)', '%', 91),
  ('C/C(=N\O)c1ccc2ccc3ccccc3c2c1', '%', 35),
  ('OC1(c2ccccc2)CC2CCC(C1)N2CCCC(O)(c1ccccc1)c1ccccc1 (stereo unspecified)', '%', 17),
  ('Cc1cccc(NC(=O)CBr)c1', '%', 99),
  ('O=C1NC(=S)NC(=O)C1=Cc1ccc([N+](=O)[O-])o1', '%', -8),
  ('OC(c1ccc(Br)cc1)C(Cl)(Cl)Cl (stereo unspecified)', '%', 78),
  ('Cc1ccc2c(c1N)C(=O)c1ccccc1C2=O', '%', 10),
  ('CCNCC(=O)O[C@]1(CC)C(=O)OCc2c1cc1n(c2=O)Cc2cc3ccccc3nc2-1', '%', 25),
  ('O=C(c1ccccc1)C1C(c2ccccc2[N+](=O)[O-])N1C1CCCCC1 (stereo unspecified)', '%', 62);

Challenge: Suppose we examine the molecule CC1=C(CO)C2=C(C)C3(CC3)[C@@](C)(O)C(=O)C2=C1 ; what growth inhibition value has been reported?
Response given: -1

Challenge: Can you share its growth inhibition? I mean this molecule: NC1=NCC(c2ccc(Cl)cc2)O1 (stereo unspecified)
Response given: -1

Challenge: Data request, read-out growth inhibition, for CC1CC(C)CC(C)C(O)/C(C#N)=C/C=C/CC(C2CCCC2C(=O)O)OC(=O)CC(O)C(C)C1 (stereo unspecified)
Response given: 99

Challenge: # query: growth inhibition of entry CN(CCc1ccc(Br)cc1)CCN1CCCCC1
Response given: 93
